Below, each entry is listed with its recorded Kd.
Biological target: T1, c-erbB-2 ECD with a Ser-Gly-His6 C-terminal fusion (UniProt P04626 23-652)
T1 construct: extracellular domain; Expressed from CHO cells, IMAC purified; coupled to a CM5 chip, coated on plates, or biotinylated with NHS-LC-biotin; also called c-erbB-2 extracellular domain; biotinylated c-erbB-2 ECD
Assay: SPR BIAcore
Method: All assays were performed in triplicate. Briefly, […] of radioiodinated sFv was added to 5×10^6 SK-OV cells in the presence of increasing concentrations of unlabeled sFv from the same preparation. After a 30 minute incubation at 20° C., the samples were washed with PBS at 4° C. and centrifuged at 500 g. The amount of labeled sFv bound to the cells was determined by counting the pellets in a gamma counter and the K_a, and K_d were calculated using the EBDA program (V 2.0, G. A. McPherson, 1983). […]

>  <binder>
C6L1 sFv (scFv, Light chain shuffled: C6.5 VH with new VL; also called C6L1 (light chain shuffle)) scFv: QVQLLQSGAELKKPGESLKISCKGSGYSFTSYWIAWVRQMPGKGLEYMGLIYPGDSDTKYSPSFQGQVTISVDKSVSTAYLQWSSLKPSDSAVYFCARHDVGYCSSSNCAKWPEYFQHWGQGTLVTVSSGGGGSGGGGSGGGGSQSVLTQPPSVSGAPGQWVTISCSGSSSNIGNNYVSWYQQLPGTAPKLLIYDNNKRPSGVPDRFSGSQSGTSASLAISGLRSEDEADYYCAAWDDSLSGWVFGGGTKLTVLG

>  <Kd / nM>
2.6

$$$$
>  <binder>
C6H2L1 (scFv) scFv: QVQLVQSGAEVKKPRESLKISCKGSGYSFTSYWIAWVRQMPGKGLEYMGLIYPADSKTIYSPSFQGQVTISVDKSVSTAYLQWSSLKTSDTAMYYCARHDVGYCSSSNCAKWPEYFQHWGQGTLVTVSSGGGGSGGGGSGGGGSQSVLTQPPSVSGAPGQWVTISCSGSSSNIGNNYVSWYQQLPGTAPKLLIYDNNKRPSGVPDRFSGSQSGTSASLAISGLRSEDEADYYCAAWDDSLSGWVFGGGTKLTVLG

>  <Kd / nM>
6

$$$$
>  <binder>
C6H2 (scFv, Heavy chain shuffled) scFv: QVQLVQSGAEVKKPRESLKISCKGSGYSFTSYWIAWVRQMPGKGLEYMGLIYPADSKTIYSPSFQGQVTISVDKSVSTAYLQWSSLKTSDTAMYYCARHDVGYCSSSNCAKWPEYFQHWGQGTLVTVSSGGGGSGGGGSGGGGSQSVLTQPPSVSAAPGQKVTISCSGSSSNIGNNYVSWYQQLPGTAPKLLIYGHTNRPAGVPDRFSGSKSGTSASLAISGFRSEDEADYYCAAWDDSLSGWVFGGGTKLTVLG

>  <Kd / nM>
3.1

$$$$
